target system: BCL6 BTB domain (BCL6 5-129, tag removed by HRV-3C protease) (human, UniProt P41182 5-129)
measurement notes: fluorescence polarisation; competition: 10 nM BCOR-AF633, 3 µM BCL6 BTB, unlabelled peptide varied; 20 mM Hepes/NaOH pH 8.0, 150 mM NaCl, 0.5 mM TCEP, 0.05% Tween 20, 1-2% DMSO; 2 h at room temperature
settings: both partners purified
test readout: IC50 (µM)

- binder: "RSEIISTAPSSWVVPGP (Terminal capping of the unlabelled peptide is not printed. Limits come from the UniProt BCL6-interaction region 498-514, which is 17 residues and matches the printed probe RSEIISTAPSSWVVPGP without …) [unlabelled BCOR peptide (17 residue BCOR peptide)]"
  test readout: "IC50"
  unit of measurement: "µM"
  numeric readout: 13

Values compiled from paper PMC9633773.
